System: ACHN renal
run.description: NCI tumour cell line growth inhibition, 48 h
measured.attribute: TGI (µM)
Give bare numbers, in µM.

Worked cases, TGI given:
compound | units.of.measure | TGI
Cc1nc(-c2ccc(N=Cc3ccc(N(CCOS(C)(=O)=O)CCOS(C)(=O)=O)cc3C)cc2)cs1 | µM | 19.2
CCCCCn1sc(=O)n(Cc2ccc(CNC(=O)OCc3ccc4cccc(O)c4n3)cc2)c1=O | µM | 2.47
CN(C)CC1CCCC1=O (stereo not given) | µM | 7.08
CN(C)CCC(/C=C/c1ccccc1)=N\Nc1ccc(Cl)cc1Cl | µM | 25.5

Could you now look at the following compound, please?
Given the entry `CCCCn1c(=O)c2c(nc3n2CCCN3CCc2ccc(OCC(=O)NCCN(CC)CC)cc2)n(CCCC)c1=O` , report its measured TGI.
10.6

###

Task for the reader: assign each of the following molecules its reported TGI.
System: M19-MEL melanoma
run.description: NCI tumour cell line growth inhibition, 48 h

Worked cases, TGI given:
molecule | TGI
Cc1cc(N(CCC#N)CCC#N)ccc1/C=C1N=C(/C=C\c2ccccc2)N(c2ccc(Cl)cc2)C\1=O | > 82.7 µM
COC(CN1C=C(Sc2ccccc2)CC1)OC | 97.7 µM
COc1ccc(C=O)c(NC(=O)C(C)C)c1 | 49.5 µM

Items follow; give TGI for each.
1. O=C(Cc1ccccc1)NN1C(=O)C(Cl)C1c1ccccc1O (stereo unspecified)
2. CC(C)c1c2[nH]c3ccccc3c2c(C(C)C)c2[nH]c3ccccc3c12
3. c1ccc(P(=Nc2ccccc2N=P(c2ccccc2)(c2ccccc2)c2ccccc2)(c2ccccc2)c2ccccc2)cc1
4. CC1(C)C2CCC13CS(=O)(=O)N1O[C@]13C(=O)O2 (stereo partly specified)
5. O=P1(Oc2ccccc2)C(c2ccccc2)C(c2ccccc2)=NN1c1ccccc1 (stereo unspecified)
6. COc1cc2c(cc1OC)C1(c3ccc(Cl)cc3)ON=C(c3ccccc3)N1CS2 (stereo unspecified)

89.6 µM
> 100 µM
12.1 µM
> 100 µM
54.9 µM
> 100 µM

Items follow; give TGI for each.
1. COC(=O)C(C)(C)N=CN(C)C
2. CC(NC(C)(C)C)C(=O)c1cccc(Cl)c1 (stereo unspecified)

1. > 100 µM
2. > 100 µM

###

Tested on: U251 CNS
run.description: NCI tumour cell line growth inhibition, 48 h
measured.attribute: TGI

Items follow; give TGI for each.
1. Brc1c(C#CCC2CCCCC2)ccc(C#CCC2CCCCC2)c1Br
2. C#CCOc1cccc(Nc2ncnc3c(NC(=O)CCl)cccc23)c1
3. COC(=O)c1cnn2c1n[n+]([O-])c1ccccc12
4. OC(c1cc2cc(Cl)c(Cl)cc2c2cc(C(F)(F)F)ccc12)C1CCCCN1 (stereo unspecified)
5. N#C/C(=C\c1c[nH]c2ccccc12)C(=O)c1ccc(O)c(O)c1
6. COc1ccc2c(c1)CCN1CCc3cc(OC)c(OC)cc3CC21 (stereo unspecified)

["> 100 µM", "38.1 µM", "> 100 µM", "3.21 µM", "> 100 µM", "> 100 µM"]

###

Test system: SN12C renal
run.description: NCI tumour cell line growth inhibition, 48 h; in the data active means GI50 below about 0.43 µM; inactive means the rest
Parameter call: string, one of True for active, False for inactive

compound | cat
COc1ccc(OC)c(Cn2cc3c(c2)-c2oncc2CC3)c1 | False
CCn1c2ccccc2c2cc(/C=C(/C#N)C(N)=O)ccc21 | False
Nc1ccc(-c2nc3ccccc3[nH]2)c2ccccc12 | False
CC(C)=CCC/C(C)=C/CC/C(C)=C/CC/C=C(\C)CC/C=C(\C)CCC(=O)Nc1ccn(C2OC(CO)C(O)C2(F)F)c(=O)n1 (stereo not drawn) | True

Called result for `Cc1nc2ccccc2c(/C=C/c2ccc(Br)cc2)c1C(=O)/C=C/c1ccccc1`
False

Called result for COc1ccc2c(c1OC)C(=O)OC2C1c2c(c([N+](=O)[O-])c3c(c2OC)OCO3)CCN1C (stereo not drawn)
False

Called result for `CC1(C)N=C(N)N=C(N)N1c1ccc(CCCCc2ccc(S(=O)(=O)F)cc2)c(Cl)c1`
True

Called result for C[C@@H]1O[C@@H](O[C@H]2CC[C@@]3(C)[C@H](CCC4[C@@H]3C(O)C[C@]3(C)[C@@H](c5ccc(=O)oc5)CC[C@]43O)C2)[C@H](O)[C@H](O)[C@H]1O (stereo partly drawn)
True

Called result for `COC(=O)c1nc(-c2ccccc2)oc1S(=O)(=O)n1nc(C)cc1N`
False

Hello, the source for this data is PubChem BioAssay (NCI), in case you need it.
